# Test system: UACC-62 melanoma
# method-description: NCI-60 one-dose screen, 48 h (100 = growth as untreated, 0 = no growth, -100 = all killed)
# condition-description: 10 µM
The panel holds about 83,000 compounds, 20% with a hit somewhere; the sample as a whole holds those more often.
readout-label: growth (%)
One number for each entry, in %.

Consider the following illustrative entries.
>>> measured_result("COC1=C(C)C(=O)C2=C(C1=O)C(CO)N1C(C#N)C3CC4C(C1C2N1CCOC41)N3C (stereo not drawn)")
-81.2
>>> measured_result("COC1CC(CC2CCC(C)C(C(C)C(=O)O)O2)OC2(OC(C)(C3CCC(C)(C4OC(C5OC(O)(CO)C(C)CC5C)CC4C)O3)CC2C)C1C (stereo not drawn)")
-98.8

Attention now shifts to the item below.
Input: # lookup: growth of Cc1ccc(C(=O)OC(C(=O)O)C(OC(=O)c2ccc(C)cc2)C(=O)O)cc1 (stereo not drawn) (tested in a mixture with another compound)
Output: 45
